test: in vitro; settings: African green monkey
Value type: CC50

Molecule: COc1cccc2[nH]c(C(=O)N[C@@H](Cc3cccc(F)c3)C(=O)N[C@@H](C[C@@H]3CCNC3=O)C(=O)COc3c(F)c(F)c(F)c(F)c3F)cc12 [compound 16, reference compound]
Result value: > 0.251 µM
--
Molecule: COc1cccc2[nH]c(C(=O)N[C@H](Cc3cccc(F)c3)C(=O)N[C@@H](C[C@@H]3CCNC3=O)C(=O)COc3c(F)c(F)c(CO)c(F)c3F)cc12 [compound 2]
Result value: > 74.1 µM
--
Molecule: CCCCCCCC(=O)N[C@@H](Cc1cccc(F)c1)C(=O)N[C@@H](C[C@@H]1CCNC1=O)C(=O)COc1c(F)c(F)c(CO)c(F)c1F [compound 3]
Result value: > 0.501 µM
--
Molecule: CC(C)(O)c1c(F)c(F)c(OCC(=O)[C@H](C[C@@H]2CCNC2=O)NC(=O)[C@@H]2[C@@H]3[C@H](CN2C(=O)[C@@H](NC(=O)C(F)(F)F)C(C)(C)C)C3(C)C)c(F)c1F [compound 14]
Result value: > 0.501 µM

Moving on to another molecule below.
Task item: Give its CC50 value. Item: COc1cccc2[nH]c(C(=O)N[C@@H](Cc3cccc(F)c3)C(=O)N[C@@H](C[C@@H]3CCNC3=O)C(=O)COc3c(F)c(F)c(CO)c(F)c3F)cc12 [compound 1]
Reply: > 1 µM
